Values from patent US4971967A

Entries annotated with measured log10(MIC)
System: Staphylococcus epidermidis IAM-1296
Test: Antibacterial activity (MIC), S. epidermidis IAM-1296
Format: cell-based
Details: Staphylococcus epidermidis, IAM1296, Staphylococcus epidermidis IAM-1296, Gram +; read-out: Minimum inhibitory concentration (MIC)
Where a name gives a salt, the structure may show the parent alone.
MEASURE NAME: log10(MIC) (log10 of the value in µg/mL)

INSERT INTO results (compound, test_value) VALUES
  ('CCNCC1CCN(c2c(F)cc3c(=O)c(C(=O)O)c4scc5n4c3c2N(C)C5)C1 (stereo not drawn) [Compound (M), hydrochloride]', -1.30),
  ('CN1Cc2csc3c(C(=O)O)c(=O)c4cc(F)c(N5CCNCC5)c1c4n23 [Compound (C)]', -1.30),
  ('CNCC1CCN(c2c(F)cc3c(=O)c(C(=O)O)c4scc5n4c3c2N(C)C5)C1 (stereo not drawn) [Compound (N), hydrochloride]', -1.30),
  ('CN1CCN(c2c(F)cc3c(=O)c(C(=O)O)c4scc5n4c3c2OC5)CC1 [Compound (Y), hydrochloride, reference compound]', -0.41),
  ('CN1Cc2csc3c(C(=O)O)c(=O)c4cc(F)c(N5CCOCC5)c1c4n23 [Compound (I)]', -1.60),
  ('CN1Cc2csc3c(C(=O)O)c(=O)c4cc(F)c(N5CCN(O)CC5)c1c4n23 [Compound (L)]', -1.00),
  ('CN1Cc2csc3c(C(=O)O)c(=O)c4cc(F)c(N5CCC(N)C5)c1c4n23 (stereo not drawn) [(H)]', -1.30),
  ('CN1CCN(c2c(F)cc3c(=O)c(C(=O)O)c4scc5n4c3c2N(C)C5)CC1 [Compound (A)]', -1.30),
  ('CN1Cc2csc3c(C(=O)O)c(=O)c4cc(F)c(N5CCC(O)C5)c1c4n23 (stereo not drawn) [Compound (G)]', -1.90),
  ('CC1COc2c(N3CCN(C)CC3)c(F)cc3c(=O)c(C(=O)O)cn1c23 (stereo not drawn) [Compound (X), reference compound]', -0.11),
  ('CC1CN(c2c(F)cc3c(=O)c(C(=O)O)c4scc5n4c3c2N(C)C5)CCN1C (stereo not drawn) [Compound (O)]', -1.30),
  ('CN1Cc2csc3c(C(=O)O)c(=O)c4cc(F)c(N5CCCC5)c1c4n23 [Compound (F)]', -1.60),
  ('CC1CN(c2c(F)cc3c(=O)c(C(=O)O)c4scc5n4c3c2N(C)C5)CC(C)N1 (stereo not drawn) [Compound (E)]', -1.00),
  ('CCN1CCN(c2c(F)cc3c(=O)c(C(=O)O)c4scc5n4c3c2N(C)C5)CC1 [Compound (J)]', -1.00),
  ('CC1CN(c2c(F)cc3c(=O)c(C(=O)O)c4scc5n4c3c2N(C)C5)CC(C)N1C (stereo not drawn) [Compound (P)]', -1.00);
